- measurement-protocol: Caco-2 permeability
- Type: in vitro ADME
- condition-label: human; Caco-2, pH 6.5/7.4; 1.0E-05 M
readout: Papp B→A at 10 µM

## Task Entry CC1(C)C(=O)N(CCN2CCN(c3cccc(F)c3)CC2)C(=O)c2ccccc21 : reported Papp B→A at 10 µM = ?
## Result 2.6 ×10⁻⁶ cm/s

----------
- measurement-protocol: Aqueous solubility (Eurofins bioavailability panel)
- Assay type: physicochemical
- condition-label: simulated gastric fluid, kinetic from dmso stock
readout: solubility (µM)
Give just the number in µM; leave the unit off.

## Task Entry CC1(C)C(=O)N(CCN2CCN(c3cccc(F)c3)CC2)C(=O)c2ccccc21 : reported solubility = ?
## Result 151

----------
- system: alpha 1-ARs
- measurement-protocol: Radioligand binding assay, displacement of [3H]prazosin on rat cerebral cortex
- condition-label: read-out: Affinity for alpha 1-ARs Ki ± SD
readout: pKi
Kindly note that pKi refers to -log10 of the concentration in mol/L and answer with the value alone.

Consider the reported pKi for these molecules:
>  <molecule>
CC1(C)C(=O)N(CCN2CCN(c3cccc(Cl)c3)CC2)C(=O)c2ccccc21 [Compound 4]

>  <pKi>
7.03

$$$$
>  <molecule>
CC1(C)C(=O)N(CCN2CCN(c3cccc(O)c3)CC2)C(=O)c2ccccc21 [Compound 7]

>  <pKi>
7.09

$$$$
>  <molecule>
CC1(C)Oc2cccc(N3CCN(CCN4C(=O)c5ccccc5C(C)(C)C4=O)CC3)c2O1 [Compound 9]

>  <pKi>
7.52

$$$$

## Task Entry COc1cccc(N2CCN(CCN3C(=O)c4ccccc4C(C)(C)C3=O)CC2)c1 [Compound 6] : reported pKi = ?
## Result 7.11

## Task Entry CC1(C)C(=O)N(CCN2CCN(c3cccc(F)c3)CC2)C(=O)c2ccccc21 [Compound 3] : reported pKi = ?
## Result 7.52

----------
- measurement-protocol: Aqueous solubility (Eurofins bioavailability panel)
- Format: physicochemical
- condition-label: PBS, pH 7.4, aqueous buffer, kinetic from dmso stock
readout: solubility (µM)
Give just the number in µM; leave the unit off.

## Task Entry CC1(C)C(=O)N(CCN2CCN(c3cccc(F)c3)CC2)C(=O)c2ccccc21 : reported solubility = ?
## Result 5.4

----------
Known log10 of Ki of a selection of compounds
- system: alpha 1-ARs
- measurement-protocol: Radioligand binding assay, displacement of [3H]prazosin on rat cerebral cortex
- condition-label: read-out: Affinity for alpha 1-ARs Ki ± SD
Heads up: the numbers are on a log10 scale; they represent Ki in µM.

Consider the reported log10 of Ki for these compounds:
>  <compound>
CC1(C)C(=O)N(CCN2CCN(c3cccc(C(F)(F)F)c3)CC2)C(=O)c2ccccc21

>  <system>
alpha 1-ARs

>  <log10 of Ki>
-0.15

$$$$
>  <compound>
CC1(C)C(=O)N(CCN2CCN(c3cccc4c3OCC(=O)N4)CC2)C(=O)c2ccccc21

>  <system>
alpha 1-ARs

>  <log10 of Ki>
-2.52

$$$$
>  <compound>
COc1ccccc1N1CCN(CCN2C(=O)c3ccccc3C(C)(C)C2=O)CC1 [ARC-239, reference compound]

>  <system>
alpha 1-ARs

>  <log10 of Ki>
-3.52

$$$$
>  <compound>
CC1(C)C(=O)N(CCN2CCN(c3ncccn3)CC2)C(=O)c2ccccc21

>  <system>
alpha 1-ARs

>  <log10 of Ki>
0.18

$$$$

Attention now turns to another entry.
## Task Give the reported log10 of Ki for CC1(C)C(=O)N(CCN2CCN(c3cccc4[nH]c(=O)oc34)CC2)C(=O)c2ccccc21 (system: alpha 1-ARs).
## Result -1.99
